Reference source for all entries: ChEMBL document CHEMBL5154839

TARGET OR TEST SYSTEM: Bromodomain-containing protein 2 (Homo sapiens)
Sequence (P25440 whole entry, the tested form may be a part): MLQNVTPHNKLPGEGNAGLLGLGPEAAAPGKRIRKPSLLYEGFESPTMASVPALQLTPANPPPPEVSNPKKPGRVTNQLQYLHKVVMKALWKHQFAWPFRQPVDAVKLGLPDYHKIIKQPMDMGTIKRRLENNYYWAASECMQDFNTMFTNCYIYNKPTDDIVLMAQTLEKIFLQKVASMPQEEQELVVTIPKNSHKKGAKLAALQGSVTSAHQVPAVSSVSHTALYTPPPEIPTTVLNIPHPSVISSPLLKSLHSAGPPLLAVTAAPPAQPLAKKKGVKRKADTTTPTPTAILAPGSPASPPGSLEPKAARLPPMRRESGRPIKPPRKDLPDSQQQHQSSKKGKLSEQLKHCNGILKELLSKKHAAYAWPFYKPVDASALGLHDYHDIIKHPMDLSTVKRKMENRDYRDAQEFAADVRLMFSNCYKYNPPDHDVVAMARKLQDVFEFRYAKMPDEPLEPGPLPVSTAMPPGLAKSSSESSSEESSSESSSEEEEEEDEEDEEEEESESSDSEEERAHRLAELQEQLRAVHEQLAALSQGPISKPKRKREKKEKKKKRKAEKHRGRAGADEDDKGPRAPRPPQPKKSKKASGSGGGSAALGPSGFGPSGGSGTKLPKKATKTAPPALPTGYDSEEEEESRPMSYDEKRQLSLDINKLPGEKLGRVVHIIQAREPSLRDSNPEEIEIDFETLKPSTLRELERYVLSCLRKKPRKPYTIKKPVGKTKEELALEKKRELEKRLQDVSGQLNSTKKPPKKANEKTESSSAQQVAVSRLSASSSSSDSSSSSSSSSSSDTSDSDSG
PROTOCOL NOTES: Binding affinity to recombinant human BRD2 BD1 (72-205 residues) assessed as inhibition constant by fluorescence polarization assay
MEASUREMENT TYPE: Ki

### Prompt Need Ki, item `C=CC(=O)N1CCN(c2c3ccc(-c4cccc(F)c4)cc3nn2Cc2ccccc2)CC1`
### Response > 400 µM

====

TARGET OR TEST SYSTEM: Bromodomain-containing protein 3 (Homo sapiens, UniProt Q15059)
Sequence (Q15059 whole entry, the tested form may be a part): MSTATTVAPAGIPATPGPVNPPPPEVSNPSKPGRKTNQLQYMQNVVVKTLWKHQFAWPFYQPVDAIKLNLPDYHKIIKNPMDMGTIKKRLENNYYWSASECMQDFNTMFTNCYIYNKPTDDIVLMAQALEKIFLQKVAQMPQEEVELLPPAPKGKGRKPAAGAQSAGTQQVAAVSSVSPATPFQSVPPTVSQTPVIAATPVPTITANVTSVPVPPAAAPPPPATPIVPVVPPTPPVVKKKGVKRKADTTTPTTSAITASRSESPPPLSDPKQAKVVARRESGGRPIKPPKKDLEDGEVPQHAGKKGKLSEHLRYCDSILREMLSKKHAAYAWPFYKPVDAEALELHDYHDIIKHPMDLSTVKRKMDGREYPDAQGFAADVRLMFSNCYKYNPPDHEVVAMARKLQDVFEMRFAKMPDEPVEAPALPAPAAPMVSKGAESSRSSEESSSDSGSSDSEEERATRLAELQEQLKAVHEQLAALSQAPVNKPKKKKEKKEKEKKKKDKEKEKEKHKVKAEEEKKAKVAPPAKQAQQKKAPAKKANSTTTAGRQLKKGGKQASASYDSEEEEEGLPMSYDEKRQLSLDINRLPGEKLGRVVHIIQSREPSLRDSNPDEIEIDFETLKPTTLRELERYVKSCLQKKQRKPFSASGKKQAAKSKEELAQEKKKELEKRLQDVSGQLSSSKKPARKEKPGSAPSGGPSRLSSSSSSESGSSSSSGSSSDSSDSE
PROTOCOL NOTES: Binding affinity to recombinant human BRD3 BD2 (306-417 residues) assessed as inhibition constant by fluorescence polarization assay
MEASUREMENT TYPE: Ki

### Prompt Need Ki, item `C=CC(=O)N1CCN(c2c3ccc(-c4cccc(F)c4)cc3nn2Cc2ccccc2)CC1`
### Response > 400 µM

====

TARGET OR TEST SYSTEM: Bcl-2-like protein 1 (Homo sapiens)
Sequence (Q07817 whole entry): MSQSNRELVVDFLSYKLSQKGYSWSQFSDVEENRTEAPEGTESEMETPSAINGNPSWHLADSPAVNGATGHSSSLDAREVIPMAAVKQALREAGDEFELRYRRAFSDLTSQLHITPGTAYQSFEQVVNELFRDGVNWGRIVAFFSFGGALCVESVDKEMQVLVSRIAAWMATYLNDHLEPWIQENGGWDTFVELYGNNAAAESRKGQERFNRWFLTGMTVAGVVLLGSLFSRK
PROTOCOL NOTES: Displacement of fluorescent-labeled BID-BH3 peptide from human BCL-xL expressed in Escherichia coli BL21 (DE3) assessed as inhibition constant by fluorescence polarization-based competitive binding assay
MEASUREMENT TYPE: pKi
Please keep in mind that pKi is minus log10 of the molar concentration; only the number is needed.

### Prompt Need pKi, item `CN1CCN(C2=C(Cl)C(=O)N(c3ccc(Cl)c(Cl)c3)C2=O)CC1`
### Response 4.30

====

TARGET OR TEST SYSTEM: Bcl-2-related protein A1 (Homo sapiens)
Sequence (Q16548 whole entry, the tested form may be a part): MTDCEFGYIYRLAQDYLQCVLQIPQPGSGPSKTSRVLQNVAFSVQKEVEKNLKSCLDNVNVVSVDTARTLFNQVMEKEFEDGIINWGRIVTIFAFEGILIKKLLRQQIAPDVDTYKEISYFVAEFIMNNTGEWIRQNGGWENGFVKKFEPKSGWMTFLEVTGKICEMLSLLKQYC
PROTOCOL NOTES: Binding affinity to His-tagged recombinant BFL-1 (1 to 151 residues) (unknown origin) expressed in Escherichia coli BL21 (DE3) assessed as dissociation constant by surface plasmon resonance analysis
MEASUREMENT TYPE: pKd
Please keep in mind that pKd is minus log10 of the molar concentration; only the number is needed.

### Prompt Need pKd, item `C=CC(=O)N1CCN(c2c3ccc(-c4cccc(F)c4)cc3nn2Cc2ccccc2)CC1`
### Response 6.58

====

TARGET OR TEST SYSTEM: E3 ubiquitin-protein ligase Mdm2 (Homo sapiens, UniProt Q00987)
Sequence (Q00987 whole entry): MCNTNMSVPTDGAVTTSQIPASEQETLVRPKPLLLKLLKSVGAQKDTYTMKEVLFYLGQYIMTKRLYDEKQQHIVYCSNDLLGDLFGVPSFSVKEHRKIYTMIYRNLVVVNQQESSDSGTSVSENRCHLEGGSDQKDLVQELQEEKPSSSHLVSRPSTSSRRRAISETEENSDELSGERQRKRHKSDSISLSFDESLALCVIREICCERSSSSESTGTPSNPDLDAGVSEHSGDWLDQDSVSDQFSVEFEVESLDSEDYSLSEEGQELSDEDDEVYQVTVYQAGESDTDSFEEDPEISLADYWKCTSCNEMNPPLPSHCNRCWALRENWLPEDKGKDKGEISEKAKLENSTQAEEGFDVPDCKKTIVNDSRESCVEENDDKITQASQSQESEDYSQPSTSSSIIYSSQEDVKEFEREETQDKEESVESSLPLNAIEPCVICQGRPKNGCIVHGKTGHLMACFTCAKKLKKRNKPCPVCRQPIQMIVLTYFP
MEASUREMENT TYPE: Ki

### Prompt Need Ki, item `C=CC(=O)N1CCN(c2c3ccc(-c4cccc(F)c4)cc3nn2Cc2ccccc2)CC1`
### Response > 400 µM

====

TARGET OR TEST SYSTEM: Bcl-2-related protein A1 (Homo sapiens)
PROTOCOL NOTES: Displacement of fluorescent-labeled BID-BH3 peptide from His-tagged human BFL-1 (1 to 151 residues) expressed in Escherichia coli BL21 (DE3) assessed as inhibition constant by fluorescence polarization-based competitive binding assay
MEASUREMENT TYPE: pKi
Please keep in mind that pKi is minus log10 of the molar concentration; only the number is needed.

### Prompt Need pKi, item `CN1CCN(C2=C(Cl)C(=O)N(c3ccc(Cl)c(Cl)c3)C2=O)CC1`
### Response 6.40

### Prompt Need pKi, item CSc1ccc(C(Nc2ccccn2)c2c(C)[nH]c3ccccc23)cc1 (configuration not stated)
### Response 5.54

====

TARGET OR TEST SYSTEM: Induced myeloid leukemia cell differentiation protein Mcl-1 (Homo sapiens, UniProt Q07820)
Sequence (Q07820 whole entry): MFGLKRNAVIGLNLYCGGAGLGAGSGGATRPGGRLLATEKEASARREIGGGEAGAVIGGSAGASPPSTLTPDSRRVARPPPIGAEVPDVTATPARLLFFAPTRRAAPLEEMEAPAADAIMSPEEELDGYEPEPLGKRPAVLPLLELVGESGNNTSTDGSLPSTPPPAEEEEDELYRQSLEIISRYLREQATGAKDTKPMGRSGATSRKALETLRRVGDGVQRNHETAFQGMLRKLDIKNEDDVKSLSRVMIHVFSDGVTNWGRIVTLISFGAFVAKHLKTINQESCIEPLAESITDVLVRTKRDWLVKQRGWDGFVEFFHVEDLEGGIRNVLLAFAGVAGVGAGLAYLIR
PROTOCOL NOTES: Displacement of fluorescent-labeled BID-BH3 peptide from His-tagged human MCL-1 expressed in Escherichia coli BL21 (DE3) assessed as inhibition constant by fluorescence polarization-based competitive binding assay
MEASUREMENT TYPE: Ki

### Prompt Need Ki, item `CC1(C)CCC(CN2CCN(c3ccc(C(=O)NS(=O)(=O)c4ccc(NCC5CCOCC5)c([N+](=O)[O-])c4)c(Oc4cnc5[nH]ccc5c4)c3)CC2)=C(c2ccc(Cl)cc2)C1`
### Response > 444 nM

====

TARGET OR TEST SYSTEM: UniProtKB Q16548
PROTOCOL NOTES: Displacement of fluorescein tagged BID BH3 peptide from His-tagged recombinant BFL-1 (1 to 151 residues) (unknown origin) expressed in Escherichia coli BL21 (DE3) assessed as inhibition constant incubated for 24 hrs by fluorescence polarization-based competitive binding assay
Exercise: state measured pKi for each of the compounds provided.
Please keep in mind that pKi is minus log10 of the molar concentration; only the number is needed.

### Prompt Need pKi, item `CCC(=O)N1CCN(c2c3ccc(-c4cccc(F)c4)cc3nn2Cc2ccccc2)CC1`
### Response 4.62

### Prompt Need pKi, item `C=CC(=O)N1CCN(c2c3ccc(-c4cccc(F)c4)cc3nn2Cc2ccccc2)CC1`
### Response 6.39

### Prompt Need pKi, item `C=CC(=O)N1CCN(c2c3ccc(-c4cccc(F)c4)cc3nn2CC)CC1`
### Response 5.55

### Prompt Need pKi, item `COc1cccc(Cn2nc3cc(-c4cccc(F)c4)ccc3c2N2CCNCC2)c1`
### Response 5.52

### Prompt Need pKi, item `C=CC(=O)N1CCN(c2c3ccc(-c4cccc(F)c4)cc3nn2Cc2ccc(O)cc2)CC1`
### Response 4.99

### Prompt Need pKi, item `C=CC(=O)N1CCN(c2c3ccc(-c4cccc(F)c4)cc3nn2Cc2cccc(O)c2)CC1`
### Response 4.73

### Prompt Need pKi, item `C=CC(=O)N1CCN(c2c3ccc(-c4cccc(F)c4)cc3nn2Cc2cccc(C#N)c2)CC1`
### Response 5.48

### Prompt Need pKi, item `C=CC(=O)N1CCN(c2c3ccc(-c4cccc(F)c4)cc3nn2Cc2ccc(C#N)cc2)CC1`
### Response 5.49

### Prompt Need pKi, item `C=CC(=O)N1CCN(c2c3ccc(-c4cccc(F)c4)cc3nn2CCCO)CC1`
### Response 5.62

### Prompt Need pKi, item `C=CC(=O)N1CCN(c2c3ccc(-c4cccc(F)c4)cc3nn2CCCN(C)C)CC1`
### Response 4.74

### Prompt Need pKi, item `C=CC(=O)N1CCN(c2c3ccc(-c4cccc(F)c4)cc3nn2CCC)CC1`
### Response 5.95

====

PROTOCOL NOTES: Displacement of FAM- labeled PDI peptide from MDM4 C17S mutant (14 to 111 residues) (unknown origin) expressed in Escherichia coli BL21 (DE3) assessed as inhibition constant incubated for 1.5 hrs by fluorescence polarization-based competitive binding assay
Parameters: species or system Homo sapiens
pKi: −log10 of the molar value.
MEASUREMENT TYPE: pKi

### Prompt Need pKi, item `C=CC(=O)N1CCN(c2c3ccc(-c4cccc(F)c4)cc3nn2Cc2ccccc2)CC1`
### Response < 3.40
